- test-target: Bovine Serum Albumin (BSA) (Bos taurus, UniProt P02769)
- Sequence (P02769 25-607): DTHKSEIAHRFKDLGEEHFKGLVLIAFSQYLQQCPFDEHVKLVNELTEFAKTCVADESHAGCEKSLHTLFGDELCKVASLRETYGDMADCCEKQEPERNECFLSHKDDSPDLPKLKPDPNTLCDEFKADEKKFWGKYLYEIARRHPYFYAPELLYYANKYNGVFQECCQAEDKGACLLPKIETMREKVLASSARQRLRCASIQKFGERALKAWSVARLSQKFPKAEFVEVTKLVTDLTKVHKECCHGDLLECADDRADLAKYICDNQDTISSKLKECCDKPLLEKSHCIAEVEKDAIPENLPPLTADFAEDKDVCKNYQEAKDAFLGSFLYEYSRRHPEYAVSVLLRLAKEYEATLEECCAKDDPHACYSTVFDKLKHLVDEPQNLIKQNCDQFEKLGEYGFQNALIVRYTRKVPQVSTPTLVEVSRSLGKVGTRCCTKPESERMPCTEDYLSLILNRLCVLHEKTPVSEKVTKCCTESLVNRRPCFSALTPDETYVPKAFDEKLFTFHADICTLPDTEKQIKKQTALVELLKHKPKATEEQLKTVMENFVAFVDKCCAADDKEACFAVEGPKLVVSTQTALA
- assay-method-text: tryptophan fluorescence quenching titration
- Assay type: binding
- condition-summary: 298 K; phosphate buffer, pH not given; 10 μM BSA stock; double-log
test-readout: Kb (M⁻¹)
Numbers only, in M⁻¹.

>  <compound>
O=C(Cc1ccccc1)NN=Cc1ccco1

>  <test-result>
44500

$$$$

State recorded Kb for all listed compounds.
1. O=C(Cc1ccccc1)NN=Cc1ccccc1O
2. O=C(Cc1ccccc1)N/N=C/C=C/c1ccccc1
3. CC=NNC(=O)Cc1ccccc1 [EPAH, N′-ethylidene-2-phenylacetohydrazide]

### Response
683000
1.75e+08
2.47e+06

The reported measurements were obtained from paper PMC10987858.
